# subjectOfTest: IRAK4 (Homo sapiens)
# Construct: with 0.1 nM IRAK4, 1.6 μM of biotinylated peptide substrate and 10 μM ATP
# Sequence (Q9NWZ3 whole entry): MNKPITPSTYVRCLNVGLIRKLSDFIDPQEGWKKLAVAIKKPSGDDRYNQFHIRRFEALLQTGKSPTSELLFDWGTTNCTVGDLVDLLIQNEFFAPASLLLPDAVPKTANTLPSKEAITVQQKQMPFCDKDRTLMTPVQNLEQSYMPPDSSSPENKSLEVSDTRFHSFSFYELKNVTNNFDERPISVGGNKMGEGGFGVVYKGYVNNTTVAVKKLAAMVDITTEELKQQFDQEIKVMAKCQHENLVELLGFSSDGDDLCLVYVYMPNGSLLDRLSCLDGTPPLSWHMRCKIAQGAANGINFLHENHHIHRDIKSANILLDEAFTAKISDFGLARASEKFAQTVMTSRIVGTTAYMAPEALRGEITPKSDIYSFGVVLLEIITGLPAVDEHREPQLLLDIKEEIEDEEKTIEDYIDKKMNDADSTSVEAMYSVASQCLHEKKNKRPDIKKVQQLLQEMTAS
# assayComment: IRAK4 MSD Biochemical Assay (1 mM ATP, 2 h)
# statedConditions: room temperature, read-out: IRAK4 MSD Biochemical Assay (1 mM ATP, 2 h) IC50
experimentalEndpoint: pIC50
// pIC50 is dimensionless: -log10 of concentration (M)

| compound | experimentalEndpoint | testResult |
| --- | --- | --- |
| CC(C)Oc1cc2nn(C34CCC(C)(C3)OC4)cc2cc1C(=O)Nc1cnn2cc(F)cnc12 (centres unmarked) [Example 100] | pIC50 | 8.92 |
| CC(C)Oc1nc2nn(C[C@@H]3CCOC3)cc2cc1C(=O)Nc1cccc2ccnn12 (single isomer, unassigned) [Example 52] | pIC50 | 9.00 |
| Cn1ccc(NC(=O)c2cc3cn(C4CCCOC4)nc3nc2OC2CCC2)n1 (single isomer, unassigned) [Example 130] | pIC50 | 8.77 |
| Cn1cccc(NC(=O)c2cc3cn(C[C@@H]4CCOC4)nc3nc2OC2CCCC2)c1=O (single isomer, unassigned) [Example 115] | pIC50 | 9.00 |

Turning now to a further record.
Please report the recorded pIC50 for Cn1ccc(NC(=O)c2cc3cn(C45CCC(C)(CC4)OC5)nc3cc2OC2CCC2)n1 [Example 140] .
9.05
